- SYSTEM TESTED: SHP2-C SH2
- ASSAY REMARKS: SH2 binding enrichment of the phosphorylated peptide, bacterial display (enrichment ratio); higher = better substrate or ligand; peptides without Tyr show the background
EXPERIMENTAL ENDPOINT: SH2 binding enrichment

{"POLYMER SEQUENCE": "MGSFNYLGFPR [SPTLC2_Y178_A182P_YF]", "SH2 binding enrichment": 1.03}

P = KGPNVCKKTVN [REV3L_Y1156_Y1156C]
Q = EKQLLYSENKT [FRK_Y132]
Which has the smaller recorded SH2 binding enrichment, P or Q ? Label of pick, please.
Q
(Q: 0.674, P: 1.48)

1 = ASKEPYYVRCI [MYO1D_Y585]
2 = KNRDVSSSDFF [USP24_Y2134_Y2134S_YF]
Lab notebook, comparison: 1 versus 2 , higher SH2 binding enrichment goes to which? Label of pick, please.
2
(2: 0.635, 1: 0.391)

---

- SYSTEM TESTED: Grb2 SH2 (UniProt P62993)
- ASSAY REMARKS: SH2 binding enrichment of the phosphorylated peptide, bacterial display (enrichment ratio); higher = better substrate or ligand; peptides without Tyr show the background
EXPERIMENTAL ENDPOINT: SH2 binding enrichment

# count of solved cases: 3
{"POLYMER SEQUENCE": "YQSKHYACIRQ [TIMP3_Y182]", "SH2 binding enrichment": 1.21}
{"POLYMER SEQUENCE": "RGKDSYETSQL [SPP1_Y225]", "SH2 binding enrichment": 0.698}
{"POLYMER SEQUENCE": "EEGRVYVYRLS [ITGAE_Y549]", "SH2 binding enrichment": 0.934}

I = RRNEIYEIKVD [LGR5_Y387_H383R]
II = LLLLFYVVRYC [MPZ_Y177]
III = EKKKFYDTKIE [CASP5_Y104_YF]
Rank descending by SH2 binding enrichment. Your reply should list the labels following the order given in the request.
II, I, III
(II: 1.77, I: 0.986, III: 0.636)

1 = LITTLYIGFLD [KCNQ1_Y267_G272D]
2 = FSKDIYKRVTG [PANK2_Y405_N404I_YF]
3 = MKKQKYGRIIM [HSD17B4_Y143]
Rank descending by SH2 binding enrichment. Your reply should list the labels following the order given in the request.
3, 1, 2
(3: 1.91, 1: 1.09, 2: 0.763)

---

- SYSTEM TESTED: EPHB1 (UniProt P54762)
- Sequence (P54762 whole entry, looked up): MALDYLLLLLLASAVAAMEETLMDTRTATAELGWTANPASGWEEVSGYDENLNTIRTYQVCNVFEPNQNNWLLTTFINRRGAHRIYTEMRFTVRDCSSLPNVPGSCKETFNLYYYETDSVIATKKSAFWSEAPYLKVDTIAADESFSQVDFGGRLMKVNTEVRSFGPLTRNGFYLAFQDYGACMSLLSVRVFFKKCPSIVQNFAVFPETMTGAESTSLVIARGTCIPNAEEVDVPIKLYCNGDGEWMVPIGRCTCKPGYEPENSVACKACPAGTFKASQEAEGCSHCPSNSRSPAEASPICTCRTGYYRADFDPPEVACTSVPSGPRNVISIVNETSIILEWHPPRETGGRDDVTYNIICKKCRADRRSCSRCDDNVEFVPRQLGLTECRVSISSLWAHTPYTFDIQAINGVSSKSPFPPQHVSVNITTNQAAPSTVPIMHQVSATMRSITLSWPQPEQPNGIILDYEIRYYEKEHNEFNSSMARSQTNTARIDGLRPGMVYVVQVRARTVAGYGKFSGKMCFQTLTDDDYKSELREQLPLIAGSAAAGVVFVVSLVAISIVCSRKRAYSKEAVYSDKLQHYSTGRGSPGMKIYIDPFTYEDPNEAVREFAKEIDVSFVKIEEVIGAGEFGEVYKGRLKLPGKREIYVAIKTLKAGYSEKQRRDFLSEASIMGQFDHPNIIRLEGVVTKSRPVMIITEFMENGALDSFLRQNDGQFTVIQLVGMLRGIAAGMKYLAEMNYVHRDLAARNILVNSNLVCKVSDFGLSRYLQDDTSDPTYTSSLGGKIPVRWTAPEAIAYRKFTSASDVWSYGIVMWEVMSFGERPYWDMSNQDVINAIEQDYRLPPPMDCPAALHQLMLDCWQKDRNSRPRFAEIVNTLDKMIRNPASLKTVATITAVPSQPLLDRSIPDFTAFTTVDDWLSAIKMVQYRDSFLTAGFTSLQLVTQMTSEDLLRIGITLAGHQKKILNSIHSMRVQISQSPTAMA
- ASSAY REMARKS: phosphorylation enrichment, bacterial display (enrichment ratio); higher = better substrate or ligand; peptides without Tyr show the background
EXPERIMENTAL ENDPOINT: phosphorylation enrichment
Write no unit; give the number alone.

# count of solved cases: 3
{"POLYMER SEQUENCE": "GSSEDYLHMVH [NIPBL_Y247]", "phosphorylation enrichment": 0.475}
{"POLYMER SEQUENCE": "PTDGVYVMPTV [MYO7A_Y1668_S1666G]", "phosphorylation enrichment": 2.01}
{"POLYMER SEQUENCE": "RRVLVYVGRGA [QDPR_Y16_G17V]", "phosphorylation enrichment": 0.63}

Which value of phosphorylation enrichment has been reported for NVGGKYSYLKV [GRM3_Y478] in the records?
0.415

Here is the next sequence: SIIKDSFHRGA [GATM_Y203_Y203S]
0.342

Here is the next sequence: FADIAYNFRQG [PAH_Y166_H170Q_YF]
0.47

Here is the next sequence: KGSEGYLAAIY [NF1_Y2503_T2507I]
0.525

Here is the next sequence: IFLADYRIMEG [ALOX12B_Y318_YF]
0.454

Here is the next sequence: CTTIHYTYMCN [TP53_Y234_N235T]
0.608

Here is the next sequence: SDVWSYGVTMW [ZAP70_Y525]
0.688

Here is the next sequence: SFHSSYSEIKD [DCLRE1C_Y322]
0.435

Here is the next sequence: GLRSFYETSKM [MAGED2_Y449_YF]
0.438

Here is the next sequence: EASEQHLTKAS [NRCAM_Y739_Y739H]
0.38

Here is the next sequence: RPSRQYATLDV [SCAMP3_Y35]
0.331

---

- SYSTEM TESTED: MERTK (UniProt Q12866)
- Sequence (Q12866 whole entry, looked up): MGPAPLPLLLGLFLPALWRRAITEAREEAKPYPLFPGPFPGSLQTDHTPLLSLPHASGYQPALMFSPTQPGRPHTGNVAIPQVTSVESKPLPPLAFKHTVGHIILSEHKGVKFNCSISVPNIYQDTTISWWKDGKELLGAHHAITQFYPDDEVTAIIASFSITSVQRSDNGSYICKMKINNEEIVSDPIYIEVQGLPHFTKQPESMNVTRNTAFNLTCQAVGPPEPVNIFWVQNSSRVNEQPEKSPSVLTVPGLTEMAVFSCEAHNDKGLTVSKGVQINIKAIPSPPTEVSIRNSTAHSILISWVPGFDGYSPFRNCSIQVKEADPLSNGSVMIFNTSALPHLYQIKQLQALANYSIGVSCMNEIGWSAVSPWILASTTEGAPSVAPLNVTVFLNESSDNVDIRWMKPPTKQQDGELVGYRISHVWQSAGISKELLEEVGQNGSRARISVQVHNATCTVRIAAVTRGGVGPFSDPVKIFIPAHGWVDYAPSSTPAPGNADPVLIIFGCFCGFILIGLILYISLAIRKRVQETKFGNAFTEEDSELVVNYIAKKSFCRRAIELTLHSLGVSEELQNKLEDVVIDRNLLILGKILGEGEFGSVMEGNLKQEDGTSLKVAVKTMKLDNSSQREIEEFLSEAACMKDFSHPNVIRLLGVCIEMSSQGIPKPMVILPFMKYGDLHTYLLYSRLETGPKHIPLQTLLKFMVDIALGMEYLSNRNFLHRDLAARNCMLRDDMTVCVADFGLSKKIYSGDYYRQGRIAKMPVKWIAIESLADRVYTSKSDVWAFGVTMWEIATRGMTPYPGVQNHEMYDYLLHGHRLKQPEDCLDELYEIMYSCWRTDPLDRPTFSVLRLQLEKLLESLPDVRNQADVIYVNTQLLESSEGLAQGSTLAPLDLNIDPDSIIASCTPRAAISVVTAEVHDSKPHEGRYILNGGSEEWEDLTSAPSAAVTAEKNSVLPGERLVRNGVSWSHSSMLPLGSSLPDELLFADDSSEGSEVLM
- ASSAY REMARKS: phosphorylation enrichment, bacterial display (enrichment ratio); higher = better substrate or ligand; peptides without Tyr show the background
EXPERIMENTAL ENDPOINT: phosphorylation enrichment
Write no unit; give the number alone.

{"POLYMER SEQUENCE": "RARIRYAQEHD [NSD1_Y1987]", "MEASURED NUMBER": 0.627}
{"POLYMER SEQUENCE": "CQASLYPSNHD [LRIG1_Y996_G993A]", "MEASURED NUMBER": 0.42}
{"POLYMER SEQUENCE": "HPFNSYTFPRL [PAK5_Y316_S312P_YF]", "MEASURED NUMBER": 1.41}
{"POLYMER SEQUENCE": "LYSINYLHFGD [KDM4C_Y201_E206D]", "MEASURED NUMBER": 12.8}

Which value of phosphorylation enrichment has been reported for FCGFSYDDIPD [TMEM230_Y112_R108C_YF] in the records?
0.558

Here is the next sequence: KTTGGYAGGLS [KRT8_Y419_S417G]
0.523

Here is the next sequence: AIGFEYSEINI [SIGLEC12_Y588_YF]
0.574

Here is the next sequence: ANVIRYFPTQA [SLC25A4_Y81]
0.546

Here is the next sequence: SILAVYSKDNY [PANK2_Y400]
0.588

Here is the next sequence: GIVKAYFVHAR [AIPL1_Y267_R270H_YF]
0.448

Here is the next sequence: KGSEGYLAAIY [NF1_Y2503_T2507I]
0.485

Here is the next sequence: SREALYNEMDP [CACNA1A_Y794]
2.36

Here is the next sequence: PNKAVYTKMMT [G6PD_Y401_E398K]
0.332

Here is the next sequence: AKLNIYKRKVE [VWA3B_Y918]
0.448

---

- SYSTEM TESTED: Grb2 SH2 (UniProt P62993)
- ASSAY REMARKS: SH2 binding enrichment of the phosphorylated peptide, bacterial display (enrichment ratio); higher = better substrate or ligand; peptides without Tyr show the background
EXPERIMENTAL ENDPOINT: SH2 binding enrichment

{"POLYMER SEQUENCE": "DEEPPYRGPFC [SASH1_Y551]", "SYSTEM TESTED": "Grb2 SH2 (UniProt P62993)", "SH2 binding enrichment": 1.06}
{"POLYMER SEQUENCE": "KILTHYKRPHT [KMT2D_Y5349]", "SYSTEM TESTED": "Grb2 SH2 (UniProt P62993)", "SH2 binding enrichment": 1.76}
{"POLYMER SEQUENCE": "DHAGMYGLGDR [MAPT_Y18_T17M]", "SYSTEM TESTED": "Grb2 SH2 (UniProt P62993)", "SH2 binding enrichment": 0.791}
{"POLYMER SEQUENCE": "TEALYYTDDPA [ADPRS_Y75_T79P]", "SYSTEM TESTED": "Grb2 SH2 (UniProt P62993)", "SH2 binding enrichment": 0.513}
{"POLYMER SEQUENCE": "GPSTPYTKSKR [SMARCC2_Y324]", "SYSTEM TESTED": "Grb2 SH2 (UniProt P62993)", "SH2 binding enrichment": 0.746}
{"POLYMER SEQUENCE": "DFAIVYGTIIL [GPR179_Y460_G455D]", "SYSTEM TESTED": "Grb2 SH2 (UniProt P62993)", "SH2 binding enrichment": 0.591}
{"POLYMER SEQUENCE": "MSRDVYSTDCF [NTRK2_Y702_Y706C_YF]", "SYSTEM TESTED": "Grb2 SH2 (UniProt P62993)", "SH2 binding enrichment": 0.894}
{"POLYMER SEQUENCE": "YDEYRYRSVIK [CFTR_Y517]", "SYSTEM TESTED": "Grb2 SH2 (UniProt P62993)", "SH2 binding enrichment": 0.788}
{"POLYMER SEQUENCE": "VKMLLYTEVTR [GDI1_Y93]", "SYSTEM TESTED": "Grb2 SH2 (UniProt P62993)", "SH2 binding enrichment": 0.869}
{"POLYMER SEQUENCE": "PRDSGYSYETI [MAP1B_Y1921_S1917R]", "SYSTEM TESTED": "Grb2 SH2 (UniProt P62993)", "SH2 binding enrichment": 0.774}

1 = GLAELYEYQKK [CKAP5_Y1854_K1857Q]
2 = QSHKVYVQHLL [POR_Y604]
Which has the smaller recorded SH2 binding enrichment, 1 or 2 ? Label of pick, please.
1
(1: 0.671, 2: 0.979)

Reference for the values: the supplement of paper PMC10065799
